Form field: Hemolysis HC10 (one value per entry).
- System: human red blood cells
- assay.method.text: Hemolytic assay
- Type: cell-based
- test.parameters: 10% hemolytic activity, mean n = 2

# compound, property, reported.result
rows = [
    ("Cc1cccc2c(C(=O)NCCCNCCCCCCNCCCNC(=O)c3c[nH]c4c(C)cccc34)c[nH]c12 [Compound 18b]", "Hemolysis HC10", ">41 µM"),
]

Prompt: GET /values?readout=Hemolysis HC10&item= Cc1cccc2c(C(=O)NCCCNCCCCCCCCNCCCNC(=O)c3c[nH]c4c(C)cccc34)c[nH]c12 [Compound 18d]
Response: >40 µM

Prompt: Likewise for COc1ccc2[nH]cc(C(=O)NCCCNCCCCCCCCCCNCCCNC(=O)c3c[nH]c4ccc(OC)cc34)c2c1.O=C(O)C(F)(F)F.O=C(O)C(F)(F)F [Compound 14e] ?
Response: >37 µM

Prompt: Next: COc1ccc2[nH]cc(C(=O)NCCCNCCCCCCCNCCCNC(=O)c3c[nH]c4ccc(OC)cc34)c2c1.O=C(O)C(F)(F)F.O=C(O)C(F)(F)F [Compound 14c]
Response: >39 µM

Prompt: And for O=C(NCCCNCCCCCCCCCCCCNCCCNC(=O)c1c[nH]c2c(F)cccc12)c1c[nH]c2c(F)cccc12.O=C(O)C(F)(F)F.O=C(O)C(F)(F)F [Compound 16f] ?
Response: >37 µM

Prompt: COc1cccc2c(C(=O)NCCCNCCCCCCNCCCNC(=O)c3c[nH]c4c(OC)cccc34)c[nH]c12 [Compound 17b] , same question.
Response: >40 µM

###

Each record here notes measured MIC Kp.
- Tested on: K. pneumoniae ATCC 700603
- assay.method.text: MIC, broth microdilution (CO-ADD), K. pneumoniae
- test.parameters: top dose 32 µg/mL

# compound, reported.result
rows = [
    ("O=C(NCCCNCCCCCCNCCCNC(=O)c1c[nH]c2c(F)cccc12)c1c[nH]c2c(F)cccc12 [Compound 16b]", ">41 µM"),
]

Prompt: Quick one: MIC Kp for COc1ccc2[nH]cc(C(=O)NCCCNCCCCCCCCCCCCNCCCNC(=O)c3c[nH]c4ccc(OC)cc34)c2c1.O=C(O)C(F)(F)F.O=C(O)C(F)(F)F [Compound 14f] ?
Response: >36 µM

Prompt: Another compound to check: COc1cccc2c(C(=O)NCCCNCCCCNCCCNC(=O)c3c[nH]c4c(OC)cccc34)c[nH]c12 [Compound 17a]
Response: >41 µM

Prompt: Same question for COc1ccc2[nH]cc(C(=O)NCCCNCCCCCCCCCCNCCCNC(=O)c3c[nH]c4ccc(OC)cc34)c2c1.O=C(O)C(F)(F)F.O=C(O)C(F)(F)F [Compound 14e] please.
Response: >37 µM

Prompt: Next compound up: Cc1cccc2c(C(=O)NCCCNCCCCCCCCNCCCNC(=O)c3c[nH]c4c(C)cccc34)c[nH]c12 [Compound 18d]
Response: >40 µM

Prompt: Next entry: Cc1cccc2c(C(=O)NCCCNCCCCCCCCCCNCCCNC(=O)c3c[nH]c4c(C)cccc34)c[nH]c12 [Compound 18e]
Response: >39 µM

Prompt: Next up: COc1ccc2[nH]cc(C(=O)NCCCNCCCCNCCCNC(=O)c3c[nH]c4ccc(OC)cc34)c2c1 [Compound 14a]
Response: >41 µM

Prompt: Another compound to check: COc1cccc2c(C(=O)NCCCNCCCCCCNCCCNC(=O)c3c[nH]c4c(OC)cccc34)c[nH]c12 [Compound 17b]
Response: >40 µM

###

- Test system: S. aureus ATCC 25923
- assay.method.text: MIC, broth dilution, S. aureus
- Format: cell-based, Staphylococcus aureus
- test.parameters: Staphylococcus aureus, ATCC25923; S. aureus ATCC 25923, 18 h; read-out: MIC Sa
Entries annotated with measured MIC
Express your answer in µM, writing the number without its unit.

# example entries with known answers
# compound, MIC, µM
measured = [
    ("COc1cccc2c(C(=O)NCCCNCCCCCCCCCCNCCCNC(=O)c3c[nH]c4c(OC)cccc34)c[nH]c12.O=C(O)C(F)(F)F.O=C(O)C(F)(F)F [Compound 17e]", 232),
    ("O=C(NCCCNCCCCCCCNCCCNC(=O)c1c[nH]c2ccc(Br)cc12)c1c[nH]c2ccc(Br)cc12 [Compound 13c]", 13.6),
    ("O=C(NCCCNCCCCCCCCCCCCNCCCNC(=O)c1c[nH]c2ccc(Br)cc12)c1c[nH]c2ccc(Br)cc12.O=C(O)C(F)(F)F.O=C(O)C(F)(F)F [Compound 13f]", 3.17),
    ("O=C(NCCCNCCCCCCCCCCNCCCNC(=O)c1c[nH]c2ccccc12)c1c[nH]c2ccccc12.O=C(O)C(F)(F)F.O=C(O)C(F)(F)F [Compound 12e]", 31.2),
]

Query compound follows.
Prompt: Entry O=C(NCCCNCCCCNCCCNC(=O)c1c[nH]c2ccccc12)c1c[nH]c2ccccc12 [Compound 12a] has what MIC?
Response: 69.8

###

Listed here: items and their measured IC50 at 20 h.
- assay.method.text: Cytotoxicity assay (resazurin)
- Assay type: cell-based
- test.parameters: human, HEK293 cells, mean n = 2

Prompt: Quick one: IC50 at 20 h for Cc1ccc2[nH]cc(C(=O)NCCCNCCCCNCCCNC(=O)c3c[nH]c4ccc(C)cc34)c2c1 [Compound 15a] ?
Response: > 43 µM

Prompt: Query CC/C(=C(\c1ccccc1)c1ccc(OCCN(C)C)cc1)c1ccccc1 [tamoxifen, reference compound] next
Response: 24 µM

Prompt: Please give the result for O=C(NCCCNCCCCCCCNCCCNC(=O)c1c[nH]c2ccccc12)c1c[nH]c2ccccc12.O=C(O)C(F)(F)F.O=C(O)C(F)(F)F [Compound 12c] too.
Response: > 42 µM

Prompt: Another compound: COc1ccc2[nH]cc(C(=O)NCCCNCCCCCCCCCCCCNCCCNC(=O)c3c[nH]c4ccc(OC)cc34)c2c1.O=C(O)C(F)(F)F.O=C(O)C(F)(F)F [Compound 14f]
Response: > 36 µM

Prompt: Can you check Cc1cccc2c(C(=O)NCCCNCCCCCCCNCCCNC(=O)c3c[nH]c4c(C)cccc34)c[nH]c12 [Compound 18c] next?
Response: > 41 µM

Prompt: Continue with O=C(NCCCNCCCCCCNCCCNC(=O)c1c[nH]c2ccccc12)c1c[nH]c2ccccc12.O=C(O)C(F)(F)F.O=C(O)C(F)(F)F [Compound 12b]
Response: > 43 µM

###

Reported MIC is given for each of the following compounds.
- Test system: MRSA ATCC 43300
- assay.method.text: MIC, broth microdilution (CO-ADD), MRSA
- Assay type: cell-based, methicillin-resistant S. aureus
- test.parameters: Staphylococcus aureus; MRSA ATCC 43300; top dose 32 µg/mL; read-out: MIC MRSA

Consider the following illustrative entries.
# compound, measured.target, MIC
records = [
    ("Cc1ccc2[nH]cc(C(=O)NCCCNCCCCCCCNCCCNC(=O)c3c[nH]c4ccc(C)cc34)c2c1 [Compound 15c]", "MRSA ATCC 43300", "≤ 0.32 µM"),
    ("O=C(NCCCNCCCCCCCNCCCNC(=O)c1c[nH]c2ccccc12)c1c[nH]c2ccccc12.O=C(O)C(F)(F)F.O=C(O)C(F)(F)F [Compound 12c]", "MRSA ATCC 43300", "≤ 0.33 µM"),
    ("COc1cccc2c(C(=O)NCCCNCCCCCCCCCCNCCCNC(=O)c3c[nH]c4c(OC)cccc34)c[nH]c12.O=C(O)C(F)(F)F.O=C(O)C(F)(F)F [Compound 17e]", "MRSA ATCC 43300", "≤ 0.29 µM"),
]

Prompt: Requested field: MIC. Item: COc1ccc2[nH]cc(C(=O)NCCCNCCCCCCCCCCCCNCCCNC(=O)c3c[nH]c4ccc(OC)cc34)c2c1.O=C(O)C(F)(F)F.O=C(O)C(F)(F)F [Compound 14f]
Response: ≤ 0.28 µM

Prompt: # iterate: O=C(NCCCNCCCCCCNCCCNC(=O)c1c[nH]c2c(F)cccc12)c1c[nH]c2c(F)cccc12 [Compound 16b]
Response: > 41 µM

Prompt: Same for Cc1ccc2[nH]cc(C(=O)NCCCNCCCCNCCCNC(=O)c3c[nH]c4ccc(C)cc34)c2c1 [Compound 15a]
Response: ≤ 0.34 µM

Prompt: // same read-out, input: COc1cccc2c(C(=O)NCCCNCCCCCCNCCCNC(=O)c3c[nH]c4c(OC)cccc34)c[nH]c12 [Compound 17b]
Response: > 40 µM

Prompt: Now this one: COc1ccc2[nH]cc(C(=O)NCCCNCCCCCCCCNCCCNC(=O)c3c[nH]c4ccc(OC)cc34)c2c1 [Compound 14d]
Response: 19.2 µM

###

Here, each record is paired with measured MIC data.
- System: C. neoformans ATCC 208821

Worked cases, MIC given:
# compound, property, reported.result
rows = [
    ("COc1ccc2[nH]cc(C(=O)NCCCNCCCCCCNCCCNC(=O)c3c[nH]c4ccc(OC)cc34)c2c1 [Compound 14b]", "MIC", "≤ 0.31 µM"),
    ("O=C(NCCCNCCCCCCCCCCCCNCCCNC(=O)c1c[nH]c2ccc(Br)cc12)c1c[nH]c2ccc(Br)cc12.O=C(O)C(F)(F)F.O=C(O)C(F)(F)F [Compound 13f]", "MIC", "≤ 0.25 µM"),
    ("Cc1ccc2[nH]cc(C(=O)NCCCNCCCCCCCCNCCCNC(=O)c3c[nH]c4ccc(C)cc34)c2c1 [Compound 15d]", "MIC", "≤ 0.31 µM"),
]

Prompt: I am curious: what MIC value has been reported for COc1cccc2c(C(=O)NCCCNCCCCCCCNCCCNC(=O)c3c[nH]c4c(OC)cccc34)c[nH]c12.O=C(O)C(F)(F)F.O=C(O)C(F)(F)F [Compound 17c] ?
Response: ≤ 0.31 µM

Prompt: For O=C(NCCCNCCCCCCCNCCCNC(=O)c1c[nH]c2c(F)cccc12)c1c[nH]c2c(F)cccc12 [Compound 16c] then?
Response: ≤ 0.31 µM

Prompt: // repeat for Cc1cccc2c(C(=O)NCCCNCCCCCCCNCCCNC(=O)c3c[nH]c4c(C)cccc34)c[nH]c12 [Compound 18c] and report
Response: ≤ 0.32 µM
